This collection of values is drawn from ChEMBL document CHEMBL3875163.

Recorded pIC50, one value per entry.
# Measurement Notes: Growth inhibition of human SW620 cells after 72 hrs by MTT assay
# Format: functional, cell-based
# Condition Description: SW-620, 72 h
Scale: pIC50 equals -log10([C]), with [C] in mol/L.

Use these answered entries as a reference point.
COc1cc(NC(C)CCCNC(=O)NNC(=O)Nc2cc(C(F)(F)F)cc(C(F)(F)F)c2)c2ncccc2c1 (stereo not given); 4.80
COc1cc(NC(C)CCCNC(=O)Nc2cccc(Cl)c2)c2ncccc2c1 (stereo not given); 4.59
COc1cc(NC(C)CCCNC(=O)NNC(=O)Nc2cccc(C(F)(F)F)c2)c2ncccc2c1 (stereo not given); 4.68

Query molecule follows.
Enquiry: Provide pIC50 value for the following molecule: COc1cc(NC(C)CCCNC(=O)Nc2ccc(Cl)cc2)c2ncccc2c1 (stereo not given)
Return: 4.55

----------
Recorded pIC50, one value per entry.
# Measurement Notes: Growth inhibition of human HeLa cells after 72 hrs by MTT assay
# Format: functional, cell-based
Scale: pIC50 equals -log10([C]), with [C] in mol/L.

COc1cc(NC(C)CCCNC(=O)Nc2cccc(F)c2)c2ncccc2c1 (stereo not given); 4.74

Enquiry: Provide pIC50 value for the following molecule: COc1cc(NC(C)CCCNC(=O)NNC(=O)Nc2cc(C(F)(F)F)cc(C(F)(F)F)c2)c2ncccc2c1 (stereo not given)
Return: 4.77

Enquiry: Provide pIC50 value for the following molecule: COc1cc(NC(C)CCCNC(=O)Nc2cccc(C(F)(F)F)c2)c2ncccc2c1 (stereo not given)
Return: 4.85

Enquiry: Provide pIC50 value for the following molecule: COc1cc(NC(C)CCCNC(=O)NNC(=O)Nc2ccc(Cl)cc2)c2ncccc2c1 (stereo not given)
Return: 3.92

----------
Recorded MIC50, one value per entry.
# System: Pseudomonas aeruginosa
# Measurement Notes: Antibacterial activity against Pseudomonas aeruginosa ATCC 9027 after 18 hrs by serial microdilution broth assay
# Format: functional
# Condition Description: ATCC 9027, 18 h

Use these answered entries as a reference point.
COc1cc(NC(C)CCCNC(=O)Nc2cccc(O)c2)c2ncccc2c1 (stereo unspecified); 100 µg/mL
COc1cc(NC(C)CCCN)c2ncccc2c1 (stereo unspecified) [PRIMAQUINE]; 70 µg/mL
CN(C)[C@@H]1C(O)=C(C(N)=O)C(=O)[C@@]2(O)C(O)=C3C(=O)c4c(O)cccc4[C@@](C)(O)[C@H]3C[C@@H]12 [TETRACYCLINE]; 3 µg/mL
COc1cc(NC(C)CCCNC(=O)Nc2cc(C(F)(F)F)cc(C(F)(F)F)c2)c2ncccc2c1 (stereo unspecified); 100 µg/mL
COc1cc(NC(C)CCCNC(=O)Nc2ccc(C(F)(F)F)cc2)c2ncccc2c1 (stereo unspecified); 100 µg/mL

Enquiry: Provide MIC50 value for the following molecule: COc1cc(NC(C)CCCNC(=O)Nc2ccc(Br)cc2)c2ncccc2c1 (stereo unspecified)
Return: 100 µg/mL

----------
Recorded MIC50, one value per entry.
# System: Staphylococcus aureus
# Measurement Notes: Antibacterial activity against methicillin resistant Staphylococcus aureus MFBF 10682 after 18 hrs by serial microdilution broth assay
# Format: functional
# Condition Description: MFBF 10682, 18 h

COc1cc(NC(C)CCCNC(=O)Nc2ccc(Br)cc2)c2ncccc2c1 (stereo not drawn); > 100 µg/mL
COc1cc(NC(C)CCCNC(=O)Nc2ccc(C(F)(F)F)cc2)c2ncccc2c1 (stereo not drawn); > 100 µg/mL

Query molecule follows.
Enquiry: Provide MIC50 value for the following molecule: COc1cc(NC(C)CCCNC(=O)Nc2cc(C(F)(F)F)cc(C(F)(F)F)c2)c2ncccc2c1 (stereo not drawn)
Return: > 100 µg/mL
